- assay.remarks: soluble on expression in E. coli; label from the status in PepcDB or PDB records

>  <primary.sequence>
MARVRIVAKKNGPYLLEVDGKVQTALCRCGHSNNKPYCDGTHARVGFQADEKVAFEAEFAAALEHHHHHH

>  <soluble on expression in E. coli>
not soluble

$$$$
>  <primary.sequence>
KEELESIINSSPVIVFLWKYEEGWPIEFVSENVTRLGYEVEDFTSRKILYGNIVYPGDLEKVERELARNIEFGCEDYSSEYRILTKSGEVRWVDERTFIQRDEKGEIRLQGIILDIT

>  <soluble on expression in E. coli>
not soluble

$$$$
>  <primary.sequence>
MMNTDNRLLTRESSEHIREFFSTVERLSVSMERLFAGRSPAMAGENFYTDRELAEKLKVSRRSLQQYRDSGLLAFTRLGGKILYRSSDIEKLLDGCYREARTRPEEL

>  <soluble on expression in E. coli>
not soluble

$$$$
